Experiment description: drug combination toxicity in non-malignant astrocytes – cell-based, BGB or cisplatin IC20 combos, cytotoxicity control for chromothriptic childhood tumor combination screen (AID 1671460);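 further: cells exposed to compounds for 96 hours before viability readout; 0% = vehicle and 100% = killing control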
Condition: Human astrocytes, viability inhibition, drug combinations; measured here: combo with cisplatin IC20; at 0.5 µM; stronger effect = higher value
Non-standard residues stand in square brackets, D forms with d. Residues, ends and D or L forms follow the SMILES beside them. Dolaproine = CO[C@@H]([C@@H]1CCCN1)[C@@H](C)C(=O)O; Dil = CC[C@H](C)[C@H](NC)[C@@H](CC(=O)O)OC; NMeV = CN[C@H](C(=O)O)C(C)C
Each record here notes measured inhibition.
Readout name: inhibition (%)

| Compound | Assay value |
| --- | --- |
| Cc1cn(C2C=CC(CO)O2)c(=O)[nH]c1=O (configuration not stated) | -23.8 |
| CC(C=CC(=O)NO)=CC(C)C(=O)c1ccc(N(C)C)cc1 (configuration not stated) | 96 |
| CC(C)(O)[C@H]1CC[C@@](C)(C2[C@@H](O)C[C@@]3(C)[C@@H]4C[C@H](O)C5C(C)(C)[C@@H](O)CCC56CC46CC[C@]23C)O1 (some centres not stated) | -8.09 |
| O=c1cc(-c2ccc(O)cc2)[nH]c(=S)[nH]1 | -15.4 |
| CC[C@H](C)[C@@H]([C@@H](CC(=O)N1CCC[C@H]1[C@H](OC)[C@@H](C)C(=O)N[C@@H](Cc1ccccc1)C(=O)O)OC)N(C)C(=O)[C@@H](NC(=O)[C@@H](NC)C(C)C)C(C)C (H-[NMeV]V[Dil][Dolaproine]F-OH) | 19.9 |
| CON=C1CN(c2nc3c(cc2F)c(=O)c(C(=O)O)cn3C2CC2)CC1CN (configuration not stated) | 2.88 |
| CC(C)(C#N)c1ccc(N2C(=O)OCc3cnc4ccc(-c5cnc6ccccc6c5)cc4c32)cc1 | -5.44 |

====

Experiment description: viability loss with induced miR-34 in A549 – imaging, A549 dox-inducible miR-34, nuclei and caspase counts, primary screen (AID 1347080)
Condition: A549 miR-34 inducible, Hoechst nuclei count, 48 h; measured here: relative caspase fold change +Dox/-Dox
Decide by fold change: equal to or exceeding 1 means Satisfied, less means Not satisfied.

| Compound | Cat |
| --- | --- |
| CCCCC[C@H](O)CC(=O)CCc1ccc(O)c(OC)c1 | Not satisfied |
| C=C1C(=CC=C2CCC[C@@]3(C)C2CCC3C(C)CCCC(C)(C)O)CC(O)CC1O (stereo partly specified) | Satisfied |
| Nn1nnc2ccccc21 | Satisfied |
| CCN(C)C(=O)Oc1cccc(C(C)N(C)C)c1 (stereo unspecified) | Not satisfied |
| Nc1ccc(Sc2ccc(N3C(=O)c4ccc(N)cc4C3=O)cc2)cc1 | Satisfied |
| COc1cccc(-n2cc(-c3ccnc(NCCc4cnc[nH]4)n3)cn2)c1 | Satisfied |

====

Experiment description: antimalarial activity against Dd2 strain (AID 2302);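 further: 0% = DMSO untreated growth and 100% = chloroquine plus artemisinin killed control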
Condition: P. falciparum Dd2 in RBCs, LDH growth readout, 72 h; at 2 µM; stronger effect = higher value
Readout name: growth inhibition (%)

| Compound | Unit tag | Assay value |
| --- | --- | --- |
| CCOc1cc(C=Cc2nc3ccccc3c(=O)[nH]2)cc(Cl)c1O | % | 90 |
| CC(=NNC(N)=O)C1=C(O)C(c2ccccc2)N(C2CCCCC2)C1=O (stereo not given) | % | 96 |
| c1cc2nc(CCCCCc3nc4ccc(C5=N[C@@H]6CCCC[C@@H]6N5)cc4[nH]3)[nH]c2cc1C1=N[C@@H]2CCCC[C@@H]2N1 | % | 98 |
| Cc1ccc(-c2cncc(-c3cc(NC4CCN(Cc5ccccc5)CC4)nc(-c4ccccc4)n3)c2)cc1 | % | 66 |
| CCn1c(C=Cc2cc(Br)ccc2O)nc2ccccc2c1=O | % | 95 |
